target: KRas^G12S (Homo sapiens, UniProt P01116, G12S); construct: Biotinylated KRas (corresponding to amino acids 1-169, produced at Accelegan Inc.); biotin (biotinylated); purchased Accelegan Inc; test: KRas binding assay (TR-FRET tracer displacement), KRas G12S; conditions: TR-FRET tracer displacement, KRas G12S
Sequence (P01116 1-169 isoform P01116-2 G12S): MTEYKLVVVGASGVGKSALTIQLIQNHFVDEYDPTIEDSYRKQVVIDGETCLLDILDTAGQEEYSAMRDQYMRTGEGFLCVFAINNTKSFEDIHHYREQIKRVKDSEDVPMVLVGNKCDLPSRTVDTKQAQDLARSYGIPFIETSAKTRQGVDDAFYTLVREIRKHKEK
IC50 values by entry

Recorded results for 5 molecules are shown here.
molecule	result
C[C@@H]1C[C@@H]1c1c(Cl)cc(O)cc1-c1ncc2c(N3C[C@@H]4C[C@H](C3)[C@H](O)C4)nc(OC[C@@]34CCCN3C[C@H](F)C4)nc2c1F (stereo in doubt) [Example 920]	< 2 nM
O=S1(=O)NCC2(CCCN(c3nc(OC[C@@]45CCCN4C[C@H](F)C5)nc4c(F)c(-c5c6ccccc6cc6[nH]ncc56)ncc34)C2)N1 (stereo partly drawn) [Example 762]	< 2 nM
C[C@@H]1C[C@@H]1c1c(Cl)cc(O)cc1-c1ncc2c(N3CCC[C@]4(C3)NC(=O)NC4=O)nc(OC[C@@]34CCCN3C[C@H](F)C4)nc2c1F [Example 932]	< 2 nM
C=C1CN2CC(=C)CC2(COc2nc(N3C[C@@H]4C[C@H](C3)[C@H](O)C4)c3cnc(-c4cc(O)cc5ccc(F)c(CC)c45)c(F)c3n2)C1 [Example 796]	< 2 nM
O=C1NC(=O)C2CC(c3nc(OCC45CCCN4CCC5)nc4c(F)c(-c5cccc6cccc(F)c56)ncc34)=CC12 (stereo not drawn) [Example 525]	> 100000 nM

Next, consider the following molecule.
Exercise: Could you share what IC50 was measured for CCc1c(F)ccc2cc(O)cc(-c3ncc4c(N5CCCn6nc(C(=O)N(C)C)cc6C5)nc(OCC56CCCN5C/C(=C\F)C6)nc4c3F)c12 (stereo not drawn) [Example 795] , tested on KRas^G12S (Homo sapiens, UniProt P01116, G12S)?
Solution: < 2 nM

====

target: KRas^G12D (Homo sapiens, UniProt P01116, G12D); construct: Biotinylated KRas (corresponding to amino acids 1-169, produced at Accelegan Inc.); biotin (biotinylated); purchased Accelegan Inc; test: KRas binding assay (TR-FRET tracer displacement), KRas G12D
Sequence (P01116 1-169 isoform P01116-2 G12D): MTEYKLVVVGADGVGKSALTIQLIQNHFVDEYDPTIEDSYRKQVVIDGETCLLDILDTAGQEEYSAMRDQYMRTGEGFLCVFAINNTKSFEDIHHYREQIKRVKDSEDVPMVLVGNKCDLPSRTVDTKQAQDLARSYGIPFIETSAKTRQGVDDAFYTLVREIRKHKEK
metric name: IC50 (nM)
Write the answer as a number in nM, unit excluded.

Exercise: Need IC50 of Oc1cc(-c2ncc3c(N4C[C@@H]5C[C@H](C4)[C@H](O)C5)nc(OC[C@@]45CCCN4C[C@H](F)C5)nc3c2F)c2ccccc2c1 [Example 737] , thanks.
Solution: 13

Exercise: Which value of IC50 has been reported for CCc1c(F)ccc2cc(O)cc(-c3ncc4c(N5C[C@H]6CC[C@@H](C5)N6C5CC(F)(F)C5)nc(OC[C@@]56CCCN5C[C@H](F)C6)nc4c3F)c12 [Example 831] in the records?
Solution: 42

Exercise: # IC50 lookup, item CCc1c(F)ccc2cc(O)cc(-c3ncc4c(N5CC6CCC(C5)C6(O)C(F)(F)F)nc(OC[C@@]56CCCN5C[C@H](F)C6)nc4c3F)c12 (stereo partly shown) [Example 843]
Solution: 265

Exercise: # IC50 lookup, item CCc1c(F)ccc2cc(O)cc(-c3ncc4c(N5C[C@H]6C[C@@H](C5)C(O)C6O)nc(OC[C@@]56CCCN5C[C@H](F)C6)nc4c3F)c12 (single isomer, unassigned) [Example 570]
Solution: 12
